Biological target: TRPV1 (Rattus norvegicus)
Construct: FLAG; expressed in transfected cells
Sequence (O35433 whole entry): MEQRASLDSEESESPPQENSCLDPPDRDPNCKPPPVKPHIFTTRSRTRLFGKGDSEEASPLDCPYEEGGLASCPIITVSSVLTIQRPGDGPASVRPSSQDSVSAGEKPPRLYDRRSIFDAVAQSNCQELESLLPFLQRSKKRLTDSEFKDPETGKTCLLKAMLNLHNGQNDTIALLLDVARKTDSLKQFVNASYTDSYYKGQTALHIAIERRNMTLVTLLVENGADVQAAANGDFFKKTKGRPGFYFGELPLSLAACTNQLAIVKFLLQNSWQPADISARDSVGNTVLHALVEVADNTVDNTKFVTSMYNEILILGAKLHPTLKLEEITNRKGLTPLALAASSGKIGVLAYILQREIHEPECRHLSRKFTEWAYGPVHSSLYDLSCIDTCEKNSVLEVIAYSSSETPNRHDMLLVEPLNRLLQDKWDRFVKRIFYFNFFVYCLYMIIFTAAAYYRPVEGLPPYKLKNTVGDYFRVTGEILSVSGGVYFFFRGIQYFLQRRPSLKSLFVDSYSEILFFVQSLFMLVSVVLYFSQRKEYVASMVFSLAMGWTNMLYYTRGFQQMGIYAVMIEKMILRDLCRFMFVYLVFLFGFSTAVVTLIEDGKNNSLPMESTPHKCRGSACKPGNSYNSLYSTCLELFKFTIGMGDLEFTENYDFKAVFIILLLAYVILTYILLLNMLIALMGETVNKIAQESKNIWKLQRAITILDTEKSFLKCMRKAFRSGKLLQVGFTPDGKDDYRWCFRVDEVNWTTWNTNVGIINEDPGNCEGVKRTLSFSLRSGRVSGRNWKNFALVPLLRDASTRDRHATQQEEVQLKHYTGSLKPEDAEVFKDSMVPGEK
Assay: Whole-cell patch clamp of TRPV1 currents in HEK293 cells overexpressing TRPV1 (HEK293-V1)
Assay type: cell-based
Details: dose 50 micromolar
Experimental: HEK TRexTRPV1 were cultured in DMEM, 10% Fetal Bovine Serum, 2 mM Lglutamine, 10 μg/ml Blasticidin (Calbiochem, San Diego Calif.), 400 μg/ml Zeocin (InvivoGen, San Diego Calif.), where indicated transgene expression was induced using 1 μg/ml Tetracycline for 16-24 hrs. […] This technique is used to study ionic currents from HEK293-V1. The voltage across the cell membrane is controlled and the ionic currents associated with changes in voltage are measured. […]
Measurement type: Rate of inactivation

Problem: What value of measured Rate of inactivation is listed for C=C(C)[C@@H]1CCC(C)=C[C@H]1c1c(O)cc(CCCCC)cc1O ?
Result: .02 dpsec^−1

Problem: What value of measured Rate of inactivation is listed for CCCCCc1cc(O)c2c(c1)OC(C)(C)c1ccc(C)cc1-2 ?
Result: .010 dpsec^−1

Problem: What value of measured Rate of inactivation is listed for CCCCCc1cc(O)c(C/C=C(\C)CCC=C(C)C)c(O)c1 ?
Result: .008 dpsec^−1

Problem: What value of measured Rate of inactivation is listed for C=C(C)[C@@H]1CCC(C)=C[C@H]1c1c(O)cc(CCC)cc1O ?
Result: .009 dpsec^−1
